Parameter: Ratio. Scope: all listed entries.
test system: Mycolicibacterium smegmatis; assay: Ratio of MIC for Arr-1 positive Mycobacterium smegmatis DSM 43756 to MIC for Arr-1 negative Mycobacterium smegmatis DSM 43756Kml; assay type: functional

Q. Return reported Ratio for target or system Mycolicibacterium smegmatis, item CO[C@H]1/C=C/O[C@@]2(C)Oc3c(C)c(O)c4c(c3C2=O)C(=O)C(N2CCOCC2)=C(NC(=O)/C(C)=C\C=C\[C@H](C)[C@H](O)[C@@H](C)[C@@H](O)[C@@H](C)[C@H](OC(=O)NCc2ccc(C(F)(F)F)cc2)[C@@H]1C)C4=O .
A. >4

Q. Return reported Ratio for target or system Mycolicibacterium smegmatis, item CO[C@H]1/C=C/O[C@@]2(C)Oc3c(C)c(O)c4c(c3C2=O)C(=O)C(N2CCOCC2)=C(NC(=O)/C(C)=C\C=C\[C@H](C)[C@H](O)[C@@H](C)[C@@H](O)[C@@H](C)[C@H](OC(=O)NCCO)[C@@H]1C)C4=O .
A. 4

Q. Return reported Ratio for target or system Mycolicibacterium smegmatis, item CNC(=O)O[C@H]1[C@H](C)[C@H](O)[C@H](C)[C@@H](O)[C@@H](C)/C=C/C=C(/C)C(=O)NC2=C(N3CCOCC3)C(=O)c3c(c(O)c(C)c4c3C(=O)[C@@](C)(O/C=C/[C@H](OC)[C@H]1C)O4)C2=O .
A. 8

Q. Return reported Ratio for target or system Mycolicibacterium smegmatis, item CO[C@H]1/C=C/O[C@@]2(C)Oc3c(C)c(O)c4c(c3C2=O)C(=O)C(N2CCOCC2)=C(NC(=O)/C(C)=C\C=C\[C@H](C)[C@H](O)[C@@H](C)[C@@H](O)[C@@H](C)[C@H](OC(=O)NCCN(C)C)[C@@H]1C)C4=O .
A. 4

Now for the compound whose Ratio we want.
Q. Return reported Ratio for target or system Mycolicibacterium smegmatis, item CO[C@H]1/C=C/O[C@@]2(C)Oc3c(C)c(O)c4c(O)c(c(/C=N/N5CCN(C)CC5)c(O)c4c3C2=O)NC(=O)/C(C)=C\C=C\[C@H](C)[C@H](O)[C@@H](C)[C@@H](O)[C@@H](C)[C@H](OC(C)=O)[C@@H]1C .
A. 64

====

system: Escherichia coli; test: Ratio of MIC for Arr-2 positive Escherichia coli CGSC 5163 lpxC101 mutant bearing pCTV104 to MIC for Arr-2 negative Escherichia coli CGSC 5163 lpxC101 mutant bearing pCTV104P; type: functional
Parameter: Ratio. Scope: all listed entries.
Kindly provide the number alone.

Q. For the compound CO[C@H]1/C=C/O[C@@]2(C)Oc3c(C)c(O)c4c(c3C2=O)C(=O)C(N2CCOCC2)=C(NC(=O)/C(C)=C\C=C\[C@H](C)[C@H](O)[C@@H](C)[C@@H](O)[C@@H](C)[C@H](OC(=O)N2CCC(NCc3ccccc3)CC2)[C@@H]1C)C4=O , report Ratio.
A. 1

Q. For the compound CO[C@H]1/C=C/O[C@@]2(C)Oc3c(C)c(O)c4c(c3C2=O)C(=O)C(N2CCOCC2)=C(NC(=O)/C(C)=C\C=C\[C@H](C)[C@H](O)[C@@H](C)[C@@H](O)[C@@H](C)[C@H](OC(=O)NCCO)[C@@H]1C)C4=O , report Ratio.
A. 16

Q. For the compound CNC(=O)O[C@H]1[C@H](C)[C@H](O)[C@H](C)[C@@H](O)[C@@H](C)/C=C/C=C(/C)C(=O)NC2=C(N3CCOCC3)C(=O)c3c(c(O)c(C)c4c3C(=O)[C@@](C)(O/C=C/[C@H](OC)[C@H]1C)O4)C2=O , report Ratio.
A. 32

====

system: Escherichia coli; experiment: Ratio of MIC for Arr-2 positive Escherichia coli CGSC 5163 lpxC101 mutant bearing pCTV104 to MIC for Arr-2 negative Escherichia coli CGSC 5163 lpxC101 mutant bearing pCTV104P; type: functional
Parameter: Ratio. Scope: all listed entries.
Kindly provide the number alone.

Here are 2 molecules together with their reported answers.
Q. For the molecule CO[C@H]1/C=C/O[C@@]2(C)Oc3c(C)c(O)c4c(c3C2=O)C(=O)C(N2CCOCC2)=C(NC(=O)/C(C)=C\C=C\[C@H](C)[C@H](O)[C@@H](C)[C@@H](O)[C@@H](C)[C@H](OC(=O)NCc2ccc(N(C)C)cc2)[C@@H]1C)C4=O , report Ratio.
A. 16

Q. For the molecule CO[C@H]1/C=C/O[C@@]2(C)Oc3c(C)c(O)c4c(c3C2=O)C(=O)C(N2CCOCC2)=C(NC(=O)/C(C)=C\C=C\[C@H](C)[C@H](O)[C@@H](C)[C@@H](O)[C@@H](C)[C@H](OC(=O)N2CCOCC2)[C@@H]1C)C4=O , report Ratio.
A. 1

---
Q. For the molecule CO[C@H]1/C=C/O[C@@]2(C)Oc3c(C)c(O)c4c(c3C2=O)C(=O)C(N2CCOCC2)=C(NC(=O)/C(C)=C\C=C\[C@H](C)[C@H](O)[C@@H](C)[C@@H](O)[C@@H](C)[C@H](OC(=O)NCCN(C)C)[C@@H]1C)C4=O , report Ratio.
A. 1
